assay: Solubility of the compounds in tested solvents; assay type: physicochemical; set-up: key: “−” means NO solubility; “++” means VERY GOOD solubility; conditions: water
readout_type: solubility

[
  {
    "compound": "C=CC(=O)N(C/C=C/CN(CCC)C(=O)C=C)CCC",
    "meas_value": "−"
  },
  {
    "compound": "C=CCN(C/C=C/C(C)N(CC=C)C(=O)C=C)C(=O)C=C (stereo not drawn)",
    "meas_value": "−"
  },
  {
    "compound": "C=CCN(C/C=C/CN(CC=C)C(=O)C=C)C(=O)C=C",
    "meas_value": "−**^)"
  },
  {
    "compound": "C=CCN(CCCCN(CC=C)C(=O)C=C)C(=O)C=C",
    "meas_value": "−"
  },
  {
    "compound": "C=CCN(C/C=C/CN(CC=C)C(C)=O)C(C)=O",
    "meas_value": "−"
  },
  {
    "compound": "C=CC(=O)N(CCC)CCCCN(CCC)C(=O)C=C",
    "meas_value": "−"
  }
]
